protocolSummary: Human hepatocyte stability assay
Assay type: in vitro ADME
details: hepatocytes (cryopreserved, 100 donor pool), 37°C
Protocol: A vial of human hepatocytes (100 donor pool HCP100.H15/Lot: 2010012; XenoTech, Kansas City, KS, US) was removed from the liquid nitrogen tank and immersed into a water bath. […] After a brief centrifugation at 100 × g for 5 min, hepatocytes were gently resuspended with incubation medium (OptiIncubate hepatocyte medium, K8400; XenoTech) and counted, and viability was determined using trypan blue staining. […]
measuredMetric: hepatocyte CLint at 1 µM (µL/min/1e6 cells)
Report as a plain number; the unit µL/min/1e6 cells is understood.

Entry CCN(CC)c1ccc(/C=C/c2cc[n+](CCCCCCCCCC[n+]3ccc(/C=C/c4ccc(N(CC)CC)cc4)c(C)c3)cc2C)cc1 [YAT2150] has what hepatocyte CLint at 1 µM? 2.5
